Hello, the source for this data is patent US9586973B2, in case you need it.

Target: HDAC6 (Homo sapiens, UniProt Q9UBN7)
Sequence (Q9UBN7 whole entry): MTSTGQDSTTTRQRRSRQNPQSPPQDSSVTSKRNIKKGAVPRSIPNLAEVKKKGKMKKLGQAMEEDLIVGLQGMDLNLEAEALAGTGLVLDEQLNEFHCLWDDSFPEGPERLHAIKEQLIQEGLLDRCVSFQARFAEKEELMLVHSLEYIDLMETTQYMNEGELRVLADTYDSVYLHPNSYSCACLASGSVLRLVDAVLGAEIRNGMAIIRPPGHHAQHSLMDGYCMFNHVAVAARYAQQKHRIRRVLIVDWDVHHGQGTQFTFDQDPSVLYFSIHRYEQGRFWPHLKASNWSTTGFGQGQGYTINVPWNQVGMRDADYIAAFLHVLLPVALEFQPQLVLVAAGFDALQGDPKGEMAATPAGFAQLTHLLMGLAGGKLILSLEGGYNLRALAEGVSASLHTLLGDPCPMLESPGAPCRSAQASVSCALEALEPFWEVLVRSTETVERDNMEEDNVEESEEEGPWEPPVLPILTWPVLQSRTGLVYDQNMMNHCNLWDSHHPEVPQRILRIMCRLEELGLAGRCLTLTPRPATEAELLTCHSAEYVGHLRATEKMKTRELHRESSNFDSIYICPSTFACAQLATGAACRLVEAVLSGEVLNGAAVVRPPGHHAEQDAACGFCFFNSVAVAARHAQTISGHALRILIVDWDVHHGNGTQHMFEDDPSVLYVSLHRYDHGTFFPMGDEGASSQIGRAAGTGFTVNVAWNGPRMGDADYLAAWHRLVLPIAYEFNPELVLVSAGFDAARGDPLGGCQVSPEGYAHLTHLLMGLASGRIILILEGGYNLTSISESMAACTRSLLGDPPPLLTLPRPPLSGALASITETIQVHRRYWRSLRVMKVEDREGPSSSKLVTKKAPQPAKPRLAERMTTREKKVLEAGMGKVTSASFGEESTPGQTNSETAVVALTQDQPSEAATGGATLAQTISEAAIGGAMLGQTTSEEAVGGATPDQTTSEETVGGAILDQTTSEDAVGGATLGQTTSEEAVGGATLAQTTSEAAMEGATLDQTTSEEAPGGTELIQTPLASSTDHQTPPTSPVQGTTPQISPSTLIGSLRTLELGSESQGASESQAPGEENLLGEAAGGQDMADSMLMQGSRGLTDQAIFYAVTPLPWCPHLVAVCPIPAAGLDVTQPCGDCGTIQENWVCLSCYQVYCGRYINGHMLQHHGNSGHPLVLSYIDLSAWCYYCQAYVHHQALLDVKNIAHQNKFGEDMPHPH
Assay: biochemical
Conditions: read-out: HDAC6 IC50; Table 5
pIC50: −log10 of the molar value.
# pIC50 annotations
METRIC: pIC50

O=C(NO)c1ccc(Cn2c3c(c4ccccc42)CS(=O)(=O)CC3)cc1 [Compound 10a] = 8.72
O=C(NO)c1ccc(Cn2c3c(c4cc(F)ccc42)CS(=O)(=O)CC3)cc1 [Compound 10c] = 8.43

----------
Target: HDAC6 (Homo sapiens)
Assay: biochemical
pIC50: −log10 of the molar value.
The threshold is inclusive: pIC50 of exactly 8 counts as TRUE; values below receive FALSE.

O=C(NO)c1ccc(Cn2c3c(c4ccccc42)CS(=O)(=O)CC3)cc1 [Compound 10a] = TRUE
COc1cc(C(=O)NO)ccc1Cn1c2c(c3ccccc31)CS(=O)(=O)CC2 [Compound 10b] = FALSE
COc1cc(C(=O)NO)ccc1Cn1c2c(c3cc(F)ccc31)CS(=O)(=O)CC2 [Compound 10d] = FALSE
O=C(NO)c1ccc(Cn2c3c(c4cc(F)ccc42)CSCC3)cc1 = FALSE
O=C(NO)c1ccc(Cn2c3c(c4cc(F)ccc42)CS(=O)(=O)CC3)cc1 [Compound 10c] = TRUE
